- SYSTEM_NAME: T1, CH2-4 constant domains of human IgE linked to a transmembrane protein, on 293 cells (human, UniProt P01854-1 104-428)
- T1 construct: domain: CH2-4 constant domains; also called human IgE-expressing 293 cells
- PROCEDURE_SUMMARY: flow cytometry, 293 cells expressing human IgE CH2-4
VALUE_TYPE: Kd (nM)
Give a bare numeral; the unit nM is implied.

1. hzB10v2-NNT (Fc fusion, monomeric) VHH-Fc: EVQLVQSGGELVQAGGSLRLSCVASGLTFSSYNMGWVRQAPGKEREFVSMSGSSSTSTYYADSVKGRFTISRDNSKNTVYLQMNSLKPEDTAVYYCAARRMLSTYWSDRSWDFWGQGTQVTVKPGGPSVFLFPPKPKDTLMISRTPEVTCVVVDVSHEDPEVKFNWYVDGVEVHNAKTKPREEQYNSTYRVVSVLTVLHQDWLNGKEYKCKVSNKALPAPIEKTISKAKGQPREPQVYTLPPSRDELTKNQVNLTCLVKGFYPSDIAVEWESNGQPENNYKTTPPVLDSDGSFFLNSTLTVDKSRWQQGNVFSCSVMHEALHNHYTQKSLSLSPGK	1.81
2. hzB10v5-NNT (Fc fusion, monomeric) VHH-Fc: EVQLVQSGGELVQAGGSLRLSCVASGLTFSSYNMGWLRQAPGKEREFVGMSGSSSTSTYYADSVKGRFTISRDNSKNTVYLQMNSLKPEDTAVYYCAARRMLSTYWSDRSWDFWGQGTQVTVEPGGPSVFLFPPKPKDTLMISRTPEVTCVVVDVSHEDPEVKFNWYVDGVEVHNAKTKPREEQYNSTYRVVSVLTVLHQDWLNGKEYKCKVSNKALPAPIEKTISKAKGQPREPQVYTLPPSRDELTKNQVNLTCLVKGFYPSDIAVEWESNGQPENNYKTTPPVLDSDGSFFLNSTLTVDKSRWQQGNVFSCSVMHEALHNHYTQKSLSLSPGK	2.5

Shift focus to the following entry.
Data request: Given hzB10v16-NNT (Fc fusion, monomeric) VHH-Fc: EVQLLESGGGEVQPGGSLRLSCVASGLTFSSYNMGWLRQAPGKEREFVGLSGSSSTSTYYAESVKGRFTISRDNSKNTVYLQMNSLKPEDTAVYYCAARRLLSTYWSDRSWDFWGQGTQVTVEPGGPSVFLFPPKPKDTLMISRTPEVTCVVVDVSHEDPEVKFNWYVDGVEVHNAKTKPREEQYNSTYRVVSVLTVLHQDWLNGKEYKCKVSNKALPAPIEKTISKAKGQPREPQVYTLPPSRDELTKNQVNLTCLVKGFYPSDIAVEWESNGQPENNYKTTPPVLDSDGSFFLNSTLTVDKSRWQQGNVFSCSVMHEALHNHYTQKSLSLSPGK , state its recorded Kd.
Data returned: 1.89
